biological target: P84S variant of detergent-solubilized full-length E. coli SPase (His6x-tagged) (Escherichia coli, UniProt P00803 1-324); experiment: steady-state binding by increase of arylomycin fluorescence; detergent-solubilized full-length His-tagged SPase
ENDPOINT LABEL: pKd
As a rule, pKd stands for the negative log10 of the concentration, concentration in M.

# input Can you share its pKd? I mean this binder: SAGXAY (C16 fatty acyl (palmitoyl) tail on the N-terminus of N-methyl-D-Ser2; D-Ala3; N-methyl-4-hydroxyphenylglycine (MeHpg) at 5, written X; biaryl bridge between MeHpg5 and Tyr7 (macrocycle MeHpg5-Ala6-Tyr7); free C-terminal carboxyl; the filing counts the lipid tail as position 1, Synthetic lipohexapeptide derived from the natural product arylomycin A2, with a straight C16 fatty acid tail; It has non-standard and D-residues and is macrocyclic, so it is a borderline case of 'peptide'; also called arylomycin A-C16; Arylomycin A2 C16) [arylomycin C16]
# output 8.24
